The compounds below have reported IC50 for Melanocortin receptor 5 (Homo sapiens, UniProt P33032).
observable: IC50 (nM)

Here's what some known entries look like.
[
  {
    "compound": "CC(C)(N)C/N=C(\\Nc1ccc(C(=O)NCCc2ccc(Cl)cc2Cl)cc1)NC1CCCCC1",
    "observable": "IC50",
    "unit.text": "nM",
    "reported.measurement": 530
  },
  {
    "compound": "C[C@@H]1CN(C(=NC2CCCCC2)Nc2ccc(C(=O)NCCc3ccc(Cl)cc3Cl)cc2)CCN1",
    "observable": "IC50",
    "unit.text": "nM",
    "reported.measurement": 70
  }
]

P = C[C@H]1CN(/C(=N/c2ccc(C(=O)NCCc3ccc(Cl)cc3Cl)cc2)NC2CCCCC2)CCN1
Q = CC1CN(C(=NC2CCCCC2)Nc2ccc(C(=O)NCCc3ccc(Cl)cc3Cl)cc2)CC(C)N1 (centres undefined)
In terms of reported IC50, does P or Q have the smaller number? When you have decided, please share the label of that item.
Q
(Q: 89 nM, P: 380 nM)

====

system.under.test: Melanocyte-stimulating hormone receptor (Homo sapiens, UniProt Q01726)
Sequence (Q01726 whole entry, looked up): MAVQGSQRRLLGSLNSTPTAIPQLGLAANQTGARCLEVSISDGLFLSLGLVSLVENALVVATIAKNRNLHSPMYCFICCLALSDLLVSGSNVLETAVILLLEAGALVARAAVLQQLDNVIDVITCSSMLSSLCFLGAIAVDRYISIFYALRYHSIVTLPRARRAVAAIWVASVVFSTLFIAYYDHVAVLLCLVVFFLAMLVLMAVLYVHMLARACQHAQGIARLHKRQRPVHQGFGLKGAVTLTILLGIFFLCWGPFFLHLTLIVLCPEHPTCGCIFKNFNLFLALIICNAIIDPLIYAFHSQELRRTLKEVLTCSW
experiment: Percentage inhibition of human melanocortin 1 receptor at 10 uM
observable: inhibition (%)

[
  {
    "compound": "C[C@@H]1CN(/C(=N/c2ccc(C(=O)NCCc3ccc(Cl)cc3Cl)cc2)NC2CCCCC2)CCN1",
    "inhibition / %": 25
  },
  {
    "compound": "C[C@H]1CN(/C(=N/c2ccc(C(=O)NCCc3ccc(Cl)cc3Cl)cc2)NC2CCCCC2)CCN1",
    "inhibition / %": 29
  },
  {
    "compound": "CNC1CCN(/C(=N/c2ccc(C(=O)NCCc3ccc(Cl)cc3Cl)cc2)NC2CCCCC2)C1 (stereo not given)",
    "inhibition / %": 27
  },
  {
    "compound": "CC1CN(/C(=N/c2ccc(C(=O)NCCc3ccc(Cl)cc3Cl)cc2)NC2CCCCC2)CC(C)N1 (stereo not given)",
    "inhibition / %": 23
  },
  {
    "compound": "CC(C)(N)C/N=C(\\Nc1ccc(C(=O)NCCc2ccc(Cl)cc2Cl)cc1)NC1CCCCC1",
    "inhibition / %": 27
  }
]
